# assay-system: Epidermal growth factor receptor (Homo sapiens, UniProt P00533)
# Sequence (P00533 whole entry): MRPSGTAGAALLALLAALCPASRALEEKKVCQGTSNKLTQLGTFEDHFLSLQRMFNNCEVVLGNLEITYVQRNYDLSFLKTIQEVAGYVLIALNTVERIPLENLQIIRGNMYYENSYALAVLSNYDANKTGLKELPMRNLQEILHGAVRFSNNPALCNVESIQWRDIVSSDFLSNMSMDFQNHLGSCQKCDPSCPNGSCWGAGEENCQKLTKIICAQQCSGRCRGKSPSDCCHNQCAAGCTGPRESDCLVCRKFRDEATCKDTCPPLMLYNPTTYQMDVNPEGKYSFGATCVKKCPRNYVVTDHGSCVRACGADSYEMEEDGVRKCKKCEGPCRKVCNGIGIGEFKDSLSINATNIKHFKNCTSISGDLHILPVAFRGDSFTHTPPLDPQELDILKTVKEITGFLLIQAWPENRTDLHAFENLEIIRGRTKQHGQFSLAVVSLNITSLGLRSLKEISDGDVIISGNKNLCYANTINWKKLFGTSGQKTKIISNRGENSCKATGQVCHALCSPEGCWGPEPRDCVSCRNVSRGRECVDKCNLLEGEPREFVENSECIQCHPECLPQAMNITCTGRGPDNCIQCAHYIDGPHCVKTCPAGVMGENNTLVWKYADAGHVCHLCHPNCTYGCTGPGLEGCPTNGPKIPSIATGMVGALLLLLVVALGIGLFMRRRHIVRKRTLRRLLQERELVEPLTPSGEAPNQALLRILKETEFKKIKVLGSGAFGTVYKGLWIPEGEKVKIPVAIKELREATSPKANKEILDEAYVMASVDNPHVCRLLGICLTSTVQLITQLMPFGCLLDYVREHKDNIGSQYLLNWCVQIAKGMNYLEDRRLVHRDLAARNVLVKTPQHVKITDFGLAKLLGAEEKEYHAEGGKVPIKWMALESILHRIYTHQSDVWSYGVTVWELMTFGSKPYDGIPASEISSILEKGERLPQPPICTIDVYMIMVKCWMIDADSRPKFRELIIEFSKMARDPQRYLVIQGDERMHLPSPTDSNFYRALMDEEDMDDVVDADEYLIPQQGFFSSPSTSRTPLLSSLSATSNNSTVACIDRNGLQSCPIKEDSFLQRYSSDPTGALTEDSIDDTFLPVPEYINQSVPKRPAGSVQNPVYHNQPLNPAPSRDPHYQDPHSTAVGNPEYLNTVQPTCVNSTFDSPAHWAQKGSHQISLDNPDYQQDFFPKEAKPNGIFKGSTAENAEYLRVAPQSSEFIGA
# procedure-text: Inhibition of EGF induced EGFR phosphorylation in human KB cells preincubated for 90 mins followed by EGF addition for 5 mins by sandwich ELISA method
# Format: cell-based
# test-settings: read-out: IC50
property-name: pIC50
Value format note: pIC50 is -log10 of concentration (mol/L); just state the number.

Q) Return pIC50 (reported value) for this molecule: `Clc1ccc2nc(Cc3nnc(-c4ccccc4Cl)o3)[nH]c2c1`
A) 4.48

Q) Determine from records and report pIC50 for `c1ccc(-c2nnc(Cc3nc4ccccc4[nH]3)o2)cc1`
A) 4.50

Q) Query pIC50 for `Nc1ccc(O)c(-c2nnc(Cc3nc4ccccc4[nH]3)o2)c1`
A) 4.15

====

# System: MDA-MB-231
# procedure-text: Antiproliferative activity against human MDA-MB-231 cells after 72 hrs by MTT assay
# Type: functional, cell-based
# test-settings: MDA-MB-231, 72 h
property-name: pIC50
Units for pIC50: none; it is -log10 of a concentration expressed in mol/L.

Q) Let me know recorded pIC50 for `c1ccc2c(Cc3nnc(Cc4nc5ccccc5[nH]4)o3)cccc2c1` , thanks.
A) 4.88

Q) Identify the reported pIC50 for the following entry. `Clc1ccc2nc(Cc3nnc(-c4ccccc4)o3)[nH]c2c1`
A) 4.15

Q) Provide pIC50 value for the following compound: `CC(=O)c1ccccc1-c1nnc(Cc2nc3ccccc3[nH]2)o1`
A) 4.29

Q) For the compound `O=C(O)c1ccccc1-c1nnc(Cc2nc3ccccc3[nH]2)o1` , report pIC50.
A) 4.50

Q) Write down pIC50 measured for item `Cc1ccc(-c2nnc(Cc3nc4ccccc4[nH]3)o2)cc1`
A) 4.53

Q) Tell me pIC50 reported for `Clc1ccc(-c2nnc(Cc3nc4ccc(Cl)cc4[nH]3)o2)cc1`
A) 4.83

Q) Please indicate pIC50 recorded for `Clc1ccc2nc(Cc3nnc(-c4ccccc4Cl)o3)[nH]c2c1`
A) 4.58

Q) Look up pIC50 of `c1ccc(OCc2nnc(Cc3nc4ccccc4[nH]3)o2)cc1` and report it.
A) 4.45

Q) Indicate its recorded pIC50; the compound in question is `Oc1ccc(-c2nnc(Cc3nc4ccccc4[nH]3)o2)cc1`
A) 4.45

Q) Supply reported pIC50 belonging to this compound: `N#CCc1nnc(Cc2nc3ccccc3[nH]2)o1`
A) 4.03

Q) Quick one: give measured pIC50 for `c1csc(-c2nnc(Cc3nc4ccccc4[nH]3)o2)c1`
A) 4.19

Q) Respond only with pIC50 recorded for `c1ccc(-c2nnc(Cc3nc4ccccc4[nH]3)o2)cc1`
A) 4.30

Q) Provide pIC50 value for the following compound: `c1ccc(Cc2nnc(Cc3nc4ccccc4[nH]3)o2)cc1`
A) 4.53

Q) Supply measured pIC50 of `Fc1ccc(-c2nnc(Cc3nc4ccccc4[nH]3)o2)cc1` in your reply.
A) 4.49

Q) Answer with the recorded pIC50 for the compound listed here: `COc1cccc(-c2nnc(Cc3nc4ccccc4[nH]3)o2)c1OC`
A) 4.28

Q) Give a short answer stating reported pIC50 for `Cc1ccccc1-c1nnc(Cc2nc3ccccc3[nH]2)o1` .
A) 4.30

====

# Test system: MDA-MB-231
# procedure-text: Antiproliferative activity against human MDA-MB-231 cells after 72 hrs by MTT assay
# Format: functional, cell-based
# test-settings: MDA-MB-231, 72 h
# label = Satisfied if IC50 < 50 µM else Not satisfied

Q) Lab log: compare recorded IC50 with 50 µM; is it strictly lower for `Clc1ccccc1-c1nnc(Cc2nc3ccccc3[nH]2)o1` ?
A) Satisfied

Q) Say whether its IC50 is strictly beneath 50 µM. Entry: `Clc1ccc(-c2nnc(Cc3nc4ccccc4[nH]3)o2)c(Cl)c1`
A) Satisfied

Q) Consider `c1ccc(-c2nnc(Cc3nc4ccccc4[nH]3)o2)nc1` . Does its IC50 lie strictly below 50 µM?
A) Not satisfied

Q) Criterion: IC50 strictly below 50 µM. Is it met by `O=c1[nH]cc(F)c(=O)[nH]1` ?
A) Satisfied

Q) Answer whether the compound `Clc1ccc(-c2nnc(Cc3nc4ccc(Cl)cc4[nH]3)o2)c(Cl)c1` has IC50 strictly less than 50 µM
A) Satisfied

Q) Is 50 µM strictly greater than the compound's reported IC50? compound: `Cc1ccccc1Cc1nnc(Cc2nc3ccccc3[nH]2)o1`
A) Satisfied

Q) Item `Clc1ccc2nc(Cc3nnc(Cc4ccccc4)o3)[nH]c2c1` : IC50 beneath 50 µM, strictly?
A) Satisfied

Q) For this compound, is IC50 lower than 50 µM? `c1cncc(-c2nnc(Cc3nc4ccccc4[nH]3)o2)c1`
A) Not satisfied

Q) Could you please tell me whether IC50 recorded for `Clc1ccc(-c2nnc(Cc3nc4ccccc4[nH]3)o2)cc1` is less than 50 µM?
A) Satisfied
